tested on: human colon cancer cells (HCT116); experiment: In vitro anti-tumor activity, MTT assay, HCT116; format: cell-based; settings: HCT-116, 48 h, read-out: HCT116 (IC50, μM)
PROPERTY_MEASURED: IC50

Given the compound CC[C@@]1(O)C(=O)OCc2c1cc1n(c2=O)Cc2cc3cc(O)ccc3nc2-1 [HCPT, 10-hydroxycamptothecin] , what is its reported IC50?
< 1 µM

Sourced from patent US11413281B2
